System: HBV genome in HEK293T cells transduced with a lentiviral vector
Assay Name: Base editing efficiency in Hek293-lentiHBV system (PCR amplicons sequenced on MiSeq)
Format: cell-based, Hepatitis B virus
Experimental Setup: replicate 3, base editor Cas12b-ABE, plasmid transfection, four days
Strand notation (5' to 3'): a small letter for the sugar, then the base; units joined by * are phosphorothioate-linked, units joined directly phosphodiester-linked; [ ] holds rarer units or linkages, { } end groups; capitals alone tell only the bases. m = 2'-O-methyl; r = 2'-OH (RNA)
Editing Efficiency 3 (%) less than 0.7% is criterion met; Editing Efficiency 3 (%) greater than or equal to 0.7% is criterion not met.

Look over these answered cases.
Molecule: cas12b-127: guide RNA SEQ ID NO: 390 (nucleic acid) guide: mG*mU*mU*rCrUrGrUrCrUrUrUrUrGrGrUrCrArGrGrArCrArArCrCrGrUrCrUrArGrCrUrArUrArArGrUrGrCrUrGrCrArGrGrGrUrGrUrGrArGrArArArCrUrCrCrUrArUrUrGrCrUrGrGrArCrGrArUrGrUrCrUrCrUrUrArCrGrArGrGrCrArUrUrArGrCrArCrArCrArCrArGrArArArGrGrCrCrUrUrGrUrArArG
Label Class: criterion not met
//
Molecule: cas12b-5: guide RNA SEQ ID NO: 380 (nucleic acid) guide: mG*mU*mU*rCrUrGrUrCrUrUrUrUrGrGrUrCrArGrGrArCrArArCrCrGrUrCrUrArGrCrUrArUrArArGrUrGrCrUrGrCrArGrGrGrUrGrUrGrArGrArArArCrUrCrCrUrArUrUrGrCrUrGrGrArCrGrArUrGrUrCrUrCrUrUrArCrGrArGrGrCrArUrUrArGrCrArCrUrCrGrCrUrGrGrArUrGrUrGrUrCrUrGrCrGrGrC
Label Class: criterion not met
//
Molecule: cas12b-30: guide RNA SEQ ID NO: 383 (nucleic acid) guide: mG*mU*mU*rCrUrGrUrCrUrUrUrUrGrGrUrCrArGrGrArCrArArCrCrGrUrCrUrArGrCrUrArUrArArGrUrGrCrUrGrCrArGrGrGrUrGrUrGrArGrArArArCrUrCrCrUrArUrUrGrCrUrGrGrArCrGrArUrGrUrCrUrCrUrUrArCrGrArGrGrCrArUrUrArGrCrArCrGrCrUrGrArCrGrCrArArCrCrCrCrCrArCrUrGrG
Label Class: criterion met

Query molecule follows.
# strict comparison: is reported Editing Efficiency 3 (%) < 0.7%? input = cas12b-100: guide RNA SEQ ID NO: 385 (nucleic acid) guide: mG*mU*mU*rCrUrGrUrCrUrUrUrUrGrGrUrCrArGrGrArCrArArCrCrGrUrCrUrArGrCrUrArUrArArGrUrGrCrUrGrCrArGrGrGrUrGrUrGrArGrArArArCrUrCrCrUrArUrUrGrCrUrGrGrArCrGrArUrGrUrCrUrCrUrUrArCrGrArGrGrCrArUrUrArGrCrArCrUrUrCrUrUrCrUrArGrGrGrGrArCrCrUrGrCrCrU criterion not met
